Reported IC50 values for a set of compounds
System: HCV subgenomic replication
Assay: Cell based HCV replication assay (subgenomic replicon in Huh-7 cells, NS3 Cell-ELISA)
Details: Table A; activity ranges; Huh-7 replicon cells, 96 hours; read-out: IC50 (nM), Inhibition of HCV subgenomic replication

// worked examples, IC50 included
INSERT INTO assay_data (compound, result) VALUES
  ('CN1CCN(C)C2COc3cc(F)ccc3-c3c(C4CCCCC4)c4ccc(cc4n3C2)C(=O)NS(=O)(=O)N(C)CC1 (stereo not shown)', '< 25 nM'),
  ('COc1cccc2c1OCC1Cn3c-2c(C2CCCCC2)c2ccc(cc23)C(=O)NS(=O)(=O)N(C)CCNCCN1C (stereo not shown)', '< 25 nM');

The recorded IC50 for COc1ccc2c(c1)OCC1CCN(C)CCCN(C)S(=O)(=O)NC(=O)c3ccc4c(C5CCCCC5F)c-2n(c4c3)C1 (single isomer, unassigned) is < 25 nM

The recorded IC50 for CN1CCOCC2COc3ccccc3-c3c(C4CCCCC4)c4ccc(cc4n3C2)C(=O)NS(=O)(=O)N(C)CC1 (single isomer, unassigned) is < 25 nM

The recorded IC50 for CN1CCN(C)C2COc3ccccc3-c3c(C4CCCCC4)c4ccc(cc4n3C2)C(=O)NS(=O)(=O)N(C)CC1 (stereo not shown) is < 25 nM

The recorded IC50 for CN1CCNCCN(C)S(=O)(=O)NC(=O)c2ccc3c(C4CCCCC4)c4n(c3c2)CC1COc1ccccc1-4 (stereo not shown) [Compound A15] is 150 to 500 nM

The recorded IC50 for CCN1CCN(C)[C@H]2COc3c(C)cccc3-c3c(C4CCCCC4)c4ccc(cc4n3C2)C(=O)NS(=O)(=O)N(C)CC1 is < 25 nM

The recorded IC50 for CCN1CCN(C)C2COc3c(CN4CCCCC4)cccc3-c3c(C4CCCCC4)c4ccc(cc4n3C2)C(=O)NS(=O)(=O)N(C)CC1 (stereo not shown) is < 25 nM

The recorded IC50 for COc1ccc2c(c1)OCC1CCCN(C)CCN(C)S(=O)(=O)NC(=O)c3ccc4c(C5CCCCC5)c-2n(c4c3)C1 (single isomer, unassigned; (+)) [Compound A36] is 25 to 150 nM

The recorded IC50 for CN1CCN(C)[C@H]2COc3ccccc3-c3c(C4CCCCC4)c4ccc(cc4n3C2)C(=O)NS(=O)(=O)N(CC2CC2)CC1 is < 25 nM

The recorded IC50 for CN1CCOCCN(C)S(=O)(=O)NC(=O)c2ccc3c(C4CCCCC4)c4n(c3c2)C[C@@H]1COc1ccccc1-4 is 25 to 150 nM

The recorded IC50 for CN1CCCC2COc3ccccc3-c3c(C4CCCCC4F)c4ccc(cc4n3C2)C(=O)NS(=O)(=O)N(C)CC1 (single isomer, unassigned) is < 25 nM

The recorded IC50 for CN1CCN(C)C2COc3ccccc3-c3c(C4CCCCC4)c4ccc(cc4n3C2)C(=O)NS(=O)(=O)N(C)C(C)(C)C1 (stereo not shown) is 25 to 150 nM

* * *

System: HCV subgenomic replication
Assay: Cell based HCV replication assay (subgenomic replicon in Huh-7 cells, NS3 Cell-ELISA)
Conditions: Hepatitis C virus; Table A; activity ranges; Huh-7 replicon cells, 96 hours; read-out: IC50 (nM), Inhibition of HCV subgenomic replication
Reported IC50 values for a set of molecules

INSERT INTO measurements (molecule, readout_label, result) VALUES
  ('O=C1NS(=O)(=O)N2CCN(CCN3CC4(COc5ccccc5-c5c(C6CCCCC6)c6ccc1cc6n5C4)C3)CC2', 'IC50', '25 to 150 nM'),
  ('O=C1NS(=O)(=O)N2CCN(CCCC3COc4ccccc4-c4c(C5CCCCC5)c5ccc1cc5n4C3)CC2 (stereo not drawn)', 'IC50', '25 to 150 nM'),
  ('CN1CCN2CCN(CC2)S(=O)(=O)NC(=O)c2ccc3c(C4CCCCC4)c4n(c3c2)C[C@@H]1COc1ccccc1-4', 'IC50', '25 to 150 nM');

The recorded IC50 for CN1CCN2CCCC2CO[C@@H]2COc3ccccc3-c3c(C4CCCCC4)c4ccc(cc4n3C2)C(=O)NS1(=O)=O (stereo partly drawn) is 25 to 150 nM

The recorded IC50 for CN1CCN2CCC(C2)N(C)S(=O)(=O)NC(=O)c2ccc3c(C4CCCCC4)c4n(c3c2)C[C@@H]1COc1ccccc1-4 is < 25 nM

The recorded IC50 for CN1[C@H]2CCN(CCN(C)S(=O)(=O)NC(=O)c3ccc4c(C5CCCCC5)c5n(c4c3)C[C@@H]1COc1ccccc1-5)C2 is < 25 nM

* * *

Reported IC50 values for a set of molecules
Test system: HCV subgenomic replication
Assay: Cell based HCV replication assay (subgenomic replicon in Huh-7 cells, NS3 Cell-ELISA)
Conditions: Hepatitis C virus, Huh-7; Table 3, various macrocycles; activity ranges; read-out: IC50* (nM), Inhibition of HCV subgenomic replication

The recorded IC50 for CN1C2CCN(CC2)CCN(C)S(=O)(=O)NC(=O)c2ccc3c(C4CCCCC4)c4n(c3c2)C[C@@H]1COc1ccccc1-4 is < 25 nM

* * *

Reported IC50 values for a set of compounds
System: HCV subgenomic replication
Test: Cell based HCV replication assay (subgenomic replicon in Huh-7 cells, NS3 Cell-ELISA)
Conditions: Hepatitis C virus, Huh-7; Table 3, various macrocycles; activity ranges; read-out: IC50* (nM), Inhibition of HCV subgenomic replication

// worked examples, IC50 included
INSERT INTO results (smiles_input, result) VALUES
  ('CN1CCN2CCCN(CC2)S(=O)(=O)NC(=O)c2ccc3c(C4CCCCC4)c4n(c3c2)C[C@@H]1COc1ccccc1-4', '< 25 nM'),
  ('CN1CCN2CCC(CC2)N(C)S(=O)(=O)NC(=O)c2ccc3c(C4CCCCC4)c4n(c3c2)C[C@@H]1COc1ccccc1-4', '< 25 nM');

Now take the following compound into account.
The reported HCV subgenomic replication IC50 of CN(C)CCN1CCOC2CCN(CC2)S(=O)(=O)NC(=O)c2ccc3c(C4CCCCC4)c4n(c3c2)C[C@@H]1COc1ccccc1-4 is 150 to 500 nM

* * *

Reported IC50 values for a set of compounds
Test system: HCV subgenomic replication
Assay: Cell based HCV replication assay (subgenomic replicon in Huh-7 cells, NS3 Cell-ELISA)
Conditions: Table A; activity ranges; Huh-7 replicon cells, 96 hours; read-out: IC50 (nM), Inhibition of HCV subgenomic replication

// worked examples, IC50 included
INSERT INTO results (compound, readout_label, result) VALUES
  ('COc1cccc2c1OCC1Cn3c-2c(C2CCCCC2)c2ccc(cc23)C(=O)NS(=O)(=O)N(C)CCN(Cc2cnn(C)c2)CCN1C (centres unmarked)', 'IC50', '< 25 nM'),
  ('CN1CCN(C)C2COc3c(OCCN4CCCC4)cccc3-c3c(C4CCCCC4)c4ccc(cc4n3C2)C(=O)NS(=O)(=O)N(C)CC1 (centres unmarked)', 'IC50', '< 25 nM'),
  ('CN(C)CCN1CCC(C)(C)CCN(C)S(=O)(=O)NC(=O)c2ccc3c(C4CCCCC4)c4n(c3c2)CC1COc1ccccc1-4 (centres unmarked)', 'IC50', '< 25 nM');

The recorded IC50 for COc1ccc2c(c1)OCC1CCCN(C)CCN(C)S(=O)(=O)NC(=O)c3ccc4c(C5CCCCC5)c-2n(c4c3)C1 (single isomer, unassigned; (-)) [Compound A37] is < 25 nM

The recorded IC50 for CNC(=O)CN1CCN(C)CCN(C)S(=O)(=O)NC(=O)c2ccc3c(C4CCCCC4)c4n(c3c2)CC1COc1ccccc1-4 (centres unmarked) is 25 to 150 nM

The recorded IC50 for CN1CCCN(C)S(=O)(=O)NC(=O)c2ccc3c(C4CCCCC4)c4n(c3c2)CC(CC1)COc1ccccc1-4 (single isomer, unassigned; (-)) [Compound A14] is < 25 nM

The recorded IC50 for CCCc1cccc2c1OC[C@H]1Cn3c-2c(C2CCCCC2)c2ccc(cc23)C(=O)NS(=O)(=O)N(C)CCN(CC)CCN1C is 25 to 150 nM

The recorded IC50 for CCN1CCN(C)C2COc3c(OC)cccc3-c3c(C4CCCCC4)c4ccc(cc4n3C2)C(=O)NS(=O)(=O)N(C)CC1 (centres unmarked) is < 25 nM

* * *

Test system: HCV subgenomic replication
Assay: Cell based HCV replication assay (subgenomic replicon in Huh-7 cells, NS3 Cell-ELISA)
Conditions: Table 2, various macrocycles; activity ranges; read-out: IC50* (nM), Inhibition of HCV subgenomic replication
READOUT_LABEL: IC50

INSERT INTO assay_data (compound, result) VALUES
  ('CCCc1cccc2c1OCC1Cn3c-2c(C2CCCCC2)c2ccc(cc23)C(=O)NS(=O)(=O)N(C)CCN(C(C)C)CCN1C (stereo not drawn)', '25 to 150 nM'),
  ('CC(C)N1CCN(C)[C@H]2COc3cc(F)ccc3-c3c(C4CCCCC4)c4ccc(cc4n3C2)C(=O)NS(=O)(=O)N(C)CC1', '< 25 nM'),
  ('CCCc1cccc2c1OCC1Cn3c-2c(C2CCCCC2)c2ccc(cc23)C(=O)NS(=O)(=O)N(C)CCN(C)CCN1C (stereo not drawn)', '25 to 150 nM'),
  ('CCN1CCN(CCN(C)C)C2COc3ccccc3-c3c(C4CCCCC4)c4ccc(cc4n3C2)C(=O)NS(=O)(=O)N(C)CC1 (stereo not drawn)', '< 25 nM'),
  ('Cc1ccc2c(c1)OCC1Cn3c-2c(C2CCCCC2)c2ccc(cc23)C(=O)NS(=O)(=O)N(C)CCN(C)CCN1C (stereo not drawn)', '< 25 nM');

Now take the following compound into account.
The reported HCV subgenomic replication IC50 of CN(C)CCN1CCN(C)C2COc3ccccc3-c3c(C4CCCCC4)c4ccc(cc4n3C2)C(=O)NS(=O)(=O)N(C)CC1 (stereo not drawn) is < 25 nM
